Reference source: the nanobody polyreactivity screen of Harvey et al. (2022)

experiment: yeast display, Sf9 membrane polyspecificity reagent, FACS + sequencing; frameworks hold sequencing errors
experimental_endpoint: polyreactivity (PSR sort gate)

Some sequences with known polyreactivity (PSR sort gate) results, for comparison:
sequence_data: QVQLVESGGGLVQAGGSLRLSCAASGRTFTTNAMGSYRQAPGKERELVAAITIGDDTYYADSVKGRFTISRDNAKNTVYLQMNSLKPEDTAVYYCAADYKRVPFVTQYVSKDGYWGQGTQVTVSS
polyreactivity (PSR sort gate): low polyreactivity
--
sequence_data: QVQLVESGGGLVQAGGSLRLSCAASGNIFHDNAMGWYREAPGKERELVAAISDSGGSTYYADSVKGRFTISRDNAKNTVYFQMNSLQPEDTAVYYCDSGRTYYAPYQWWYDYWGQGTQVTVSS
polyreactivity (PSR sort gate): high polyreactivity
--
sequence_data: QVQLVESGGGLVQAGGSLRLSCAASGSTFGEYAMGWYRQAPGKERELVAVITSDDNTYYADSVKGRFTISRDNAKNTVYLQMNSLKPEDTAVYYCAARGYVLARSQQWRREYYWGQGTQVTVSS
polyreactivity (PSR sort gate): high polyreactivity
--
sequence_data: QVHLVESGGGLVQAAGSLRLSCAASGSTFKYNAMGWYRQAPGKERELVAAITRGGRTYYADSVKGRFTISRDNAKNTVYLQMNSLKPEDTEVYYCAAAIPSGTFYAGAYYYWGQGTQVTVSS
polyreactivity (PSR sort gate): high polyreactivity
--
sequence_data: QVQLVESGGGLVQAGGSLRLSCAASGSISSKNSMGWYRQAPGKEREFVAVISGTGGSTYYSDSVKGRFTISRDIAKNTVYLQMNSLKPEDTAVYYCAADFPWSTKSWHPDSGDSWGQGTQVTVSS
polyreactivity (PSR sort gate): low polyreactivity

[in] What value of polyreactivity (PSR sort gate) has been reported for the following sequence? QVQLVESGGGLVQAGGSLRLSCAASGRILQPNAMGWYRQAPGKERELVAGISRSGGGTYYADSVKWRFTISRDNAKNTVYLQMNTLKPEDTAVYYCAAYRYGYGYGYWGQGTQLTVSS
[out] high polyreactivity

[in] Could you do the same for QVQLQESGGGLVLAGGSLRLSCSASGNISVYGSMGWYRQAPGKEREFVATIDPGTNTNYADSVKDRFTISRDNAKNTVYLQMNSLKPVDTAVYFCAVEAGSDWPYRYWGQGTQVTVSS , please?
[out] low polyreactivity

[in] Could you do the same for QVQLVESGGGLVQAGGSLRLSCAASGLIFFFYAMGWYRQAPGKERELVASISGGGITYYADSVKGRFTISRDNAKNTVYLQMNSLKPEDTAVYYCAARVLDWRGDIHDSEYWGQGTQVTVSS , please?
[out] low polyreactivity

[in] Could you do the same for QVQLVESGGGLVQAGCSLRLSCAASGSIFAYYDMGWYRQAPGKERELVAAITTRDDDTYYADSVKGRFTISRDNAKNTVYLLLNSLKPEDTAVYYCAAAWWDYGNGKYDYWGQGTQVTVSS , please?
[out] low polyreactivity

[in] Could you do the same for QVQLVESGGGLVQAGGSLRLSCAASGFTFAVYVMGWYRQAPGKERELVAAISRSGGSTYYADSVKGRFTISRDNAKNTVYLQMNSLKPEDTAVYYCNARVWAKYDYWGQGTQVTVSS , please?
[out] high polyreactivity

====

assay: yeast display, Sf9 membrane polyspecificity reagent, FACS + sequencing; frameworks hold sequencing errors
experimental_endpoint: polyreactivity (PSR sort gate)

Some sequences with known polyreactivity (PSR sort gate) results, for comparison:
sequence_data: QVQHVESGGGLVQAGGSLRLSCAASGFNFAYNIMGWYRQAPGKERELVADISGTGSTNYADSVKGRFTISRDNAKNTVYLQMNSLKPEDTAVYYCATSGDRLVWGQGTQVTVSS
experimental_endpoint: polyreactivity (PSR sort gate)
result: low polyreactivity
--
sequence_data: QVQLVESGGGLVQAGGSLRLSCAASGSIFYINAMGWYRQAPGKERELVAAITWRGAGTYYADSVKGRFTISRDNAKNTVYLQMNSLKPEDTAVYYCAADDSPWRVPRNYWGQGTQVTVSS
experimental_endpoint: polyreactivity (PSR sort gate)
result: low polyreactivity
--
sequence_data: QVQLVESGGGLVQAGGSLRLSCAASGFTFWTYARGWYRQAPGKERELVAAIDSGGSTYYADSVKGRFTISRDNAKNTVYLQMNSLKPEDTAVYYCNAGPSVTSGYDYDYWGQGTQVTVSS
experimental_endpoint: polyreactivity (PSR sort gate)
result: low polyreactivity
--
sequence_data: QVQLVESGGGLVQAGGSLRLSCASSGSIFVTYTMGWYRQAPGKERELVATISGGSSTYADSVKGRFTISRDNAKNTVYLQMNSLKPEDTAVYYCNAVWYFKPPPLYYIPYRQYDYWGQGTQVTVSS
experimental_endpoint: polyreactivity (PSR sort gate)
result: low polyreactivity
--
sequence_data: QVQLVESGGGLVQAGGSLRISCAASGINFSVNAMGWYRQAPGKERELVAAITYSGGSTYYADSVKGRFTISRDNAKNTVYLQMNSLKPEDTAVYYCAAETYSSGEWYDYWGQGTQVTVSS
experimental_endpoint: polyreactivity (PSR sort gate)
result: high polyreactivity
--
sequence_data: QVQLVESGGGLVQAGGSLRLSCAASGRTFTPYAMGWYRQAPGKERELVAAITSNSGITSYADSVKGRFTISRDNAKNTVYLQMNSLKPEDTAVYYCNADYYRYFRYYYWGQGTQVTVSS
experimental_endpoint: polyreactivity (PSR sort gate)
result: high polyreactivity
--
sequence_data: QVQLVESGGGLVQAGGSLRLSCAASGIIIDSNAMGWYRQAPGKERELVAAITSGGSTKYADSVKGRFTISRDNAKNTVYLQMNSLKPEDTAVYYCNADFRPADQWSYFYEMDSWGQGTQVTVSS
experimental_endpoint: polyreactivity (PSR sort gate)
result: low polyreactivity
--
sequence_data: QVQLVESGGGLVQAGGSLRLSCAASGNIFIYNAMGWNRQAPGKERELVAAISVSGGDTYYADSVKGRFTISRDNAKYTVYLQLNSLKPEDTAVYYCAAEAEYIELDYWGQGTQVTVSS
experimental_endpoint: polyreactivity (PSR sort gate)
result: low polyreactivity

[in] What value of polyreactivity (PSR sort gate) has been reported for the following sequence? QVQLVDSAGCLVQAGGSLRLSCAASGRIFVYYVMGWYRQAPGKERELVASITFRGSRTYYADSVKGRFTISRDYAKNTVYLQMISLKPEDTAVYYCNADVWASGSRGDGYWGQGTQVTVAS
[out] low polyreactivity

[in] Could you do the same for QVQVVESGGGLVQAGGSLGLSCAASGRTFRVYAMGWYRQAPGKERELVASITRGGGTYADSVKGRFTISRDNAKNTVYLQMNCLKPEDTAVYYCNARWQRSTGGRQRYDYWGLGTQVTVSS , please?
[out] high polyreactivity

[in] Could you do the same for QVQLVESGGGLVQAGGSLRLSCAASGYTFPTYAMGWYRQAPGKERELVAAISIDDGITYYADSVKGRFTISRDNAKNTVYLQMNSLKPEDTAVYYCAADVGIEYDYWGQGTQVTVSS , please?
[out] high polyreactivity

[in] Could you do the same for QVQLVESGGRLVQAGGRLRLSCAASGNIFYGYAMGWYRQAPGKERELVARINWSGSRTYYADTVKGRFTISRDNAKNTVYLQMNSLNPEDTAVYYCNTSTSRVPGNGDYWGQGTQVTVSS , please?
[out] high polyreactivity

[in] Could you do the same for QVQLVESGGGLVQAGGSLRLSCAASGFTFHNYAMGWYRQAPGKERELVAAITWDGGSTYYADSVKGRFTISRDNEKNTVDLQLNRLKPEDTAVYYCALDQYYYYYADYNFDYWGQGTQVTVSS , please?
[out] high polyreactivity

[in] Could you do the same for QVQLVESGGGLVQAGGSLRLSCAASGFTLTRNAMGWYRPAPGKERELVAAISWSGGTTYYADSVKGRFTISRDNAKNTVYLQMNSLKPEDTAVYYCAADSVKYGGDYWGQGTQVTVSS , please?
[out] high polyreactivity
